assay_system: T1, Macaca fascicularis IL2Rγ extracellular domain expressed with a C-terminal myc-myc-hexahistidine tag (Macaca fascicularis)
T1 construct: also called mfIL-2Rg-MMH; mfIL-2RG-MMH
T1 chain: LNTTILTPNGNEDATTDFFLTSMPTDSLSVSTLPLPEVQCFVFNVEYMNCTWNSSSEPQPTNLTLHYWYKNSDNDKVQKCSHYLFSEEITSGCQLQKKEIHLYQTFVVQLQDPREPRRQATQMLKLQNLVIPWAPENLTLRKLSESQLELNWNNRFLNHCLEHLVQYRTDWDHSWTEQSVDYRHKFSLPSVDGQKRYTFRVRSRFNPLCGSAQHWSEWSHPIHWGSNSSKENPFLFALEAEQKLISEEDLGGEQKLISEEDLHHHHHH
measurement_notes: SPR Biacore 4000, mAb captured by anti-hFc, 37C, dissociation in PBS-T pH 6.0
metric_name: t1/2

So, H4H13541P (antibody, human IgG4 S228P, kappa, V domains shown, anti-IL2Rγ monoclonal antibody expressed with human IgG4 Fc) VH: EVQLVESGGGVVRPGGSLRLSCAASGFIFDDYDMSWVRQPPGRGLEWVSGIDWFGGTRGYADSMKGRFTISRDNAKNSLYLQMNSLRVEDTAFYYCARGGAIVGAVTPFDYWGQGTLVTVSS VL: DIQMTQSPSSLSASVGNRVTLSCRASQSINTYLSWYQQRPGKAPKLLIYAASSLQSGVPSRFSGSGAGTDFTLTISSLQPEDFATYYCQQSYSAPLTFGGGTKVEIKR ? Its t1/2 was 8 min
